# Test system: HCC 2998
# protocol: NCI tumour cell line growth inhibition, 48 h
The source made the active and inactive calls. Cut-off read from the data, not from the text of the source: active = GI50 up to about 1.1 µM and inactive = higher.
Choose the fitting class; nothing outside active, inactive is accepted.

1) O=C(CSCC(=O)N/N=C/c1cccs1)N/N=C/c1cccs1 : inactive
2) CC(=O)NC1C(OCc2ccccc2)OC(CO)C(O)C1OC(C)C(=O)NC(C)C(=O)N[C@@H](CCC(=O)OCCCNC1c2ccccc2Nc2cccc([N+](=O)[O-])c21)C(N)=O (some centres undefined) : active

Task: # lookup: test call for `Brc1ccc(-c2ccc(-c3ccc(-c4ccc(Br)s4)s3)s2)s1`
Result: inactive

Task: Tell me the assay call for COc1ccc2c(c1)C(=O)C1(C2)[C@H](c2ccccc2)C2C(=O)c3cc(OC)ccc3C2[C@H]1c1ccccc1 (some centres undefined) please.
Result: inactive

* * *

# System: U-251
# protocol: NCI tumour cell line growth inhibition, 48 h
The source made the active and inactive calls. No stated cut-off is given here; in the data, active = GI50 up to about 1.1 µM and inactive = higher. Where a SMILES comes first, the peptide text is derived from it. [ ]: non-standard residue; d: D form. The star is where a group is joined. ξ: configuration not given here. ξF = NC(Cc1ccccc1)C(=O)O; Cbz = O=C(OCc1ccccc1)*; Aib = CC(C)(N)C(=O)O
Give your call using only these classes: yes (1) (active), no (0) (inactive)

Known results for molecules:
1. COc1ccc(NC(=O)CC(=O)n2nc(C)c(/N=N/c3ccccc3C(=O)O)c2C)cc1 : no (0)
2. O=C(N/N=C\c1cccc2ccccc12)Nc1cccc2ccccc12 : no (0)
3. CC1CC[C@@]2(OC1)OC1C[C@H]3[C@@H]4CC[C@H]5CC(OC6OC(CO)C(OC7OC(CO)C(O)C(O)C7OC7OC(CO)C(O)C(O)C7O)C(O)C6O)CCC5(C)[C@H]4CCC3(C)C1[C@@H]2C (stereo not given in full) : yes (1)

Task: Fill in: this test's call for `C#CCOCn1cc(C)c(=O)[nH]c1=O` is ___
Result: no (0)

Task: What did the test return for COC(=O)C(C)(C)NC(=O)C(Cc1ccccc1)NC(=O)C(C)(C)NC(=O)OCc1ccccc1 (stereo not given) (Cbz-[Aib]-[ξF]-[Aib]-OMe) ?
Result: no (0)

Task: So what was the verdict on `O=C(O)CCC1(CCC(=O)O)CCCCCCCCC(CCC(=O)O)(CCC(=O)O)C(=O)C1=O` in this test?
Result: no (0)

Task: Given CCCC(N)C(=O)c1ccccc1 (stereo not given) , state the outcome it received in this test.
Result: no (0)

* * *

# Tested on: MDA-MB-231
# protocol: NCI tumour cell line growth inhibition, 48 h
The source made the active and inactive calls. Rule as the data show it: active = GI50 up to about 1.1 µM and inactive = higher.
# valid calls are active, inactive; nothing else

1) O=C(O)c1ccc(S(=O)(=O)c2ccccc2[N+](=O)[O-])cc1 : inactive
2) NCCc1ccc2c(c1)C(=O)c1c(O)ccc(O)c1C2=O : inactive

Task: Which outcome was assigned to COc1ccc(C(c2cc(OC)c(OC)c(OC)c2)N2C(=O)CCC2C(=O)O)cc1 (stereo not given) in this test?
Result: inactive

Task: Assay result, entry COC(=O)c1cc2c(cc1CC(Cc1ccc3c(c1)CCCC3)C(=O)OC)CCCC2 (stereo not given) — outcome?
Result: inactive

Task: Check the results log: what was the call for `Cc1cc2ccccc2n1CC(=O)N1CCCC1` ?
Result: inactive

Task: What did this assay record as the result for CCOC(=O)CC(c1ccccc1)C(C)(C(=O)OCC)C(=O)OCC (stereo not given) ?
Result: inactive

Values compiled from ChEMBL document CHEMBL1201862.
